- Measurement target: S. aureus GyrB ATPase (Staphylococcus aureus, UniProt P0A0K8)
- Sequence (P0AES4 whole entry): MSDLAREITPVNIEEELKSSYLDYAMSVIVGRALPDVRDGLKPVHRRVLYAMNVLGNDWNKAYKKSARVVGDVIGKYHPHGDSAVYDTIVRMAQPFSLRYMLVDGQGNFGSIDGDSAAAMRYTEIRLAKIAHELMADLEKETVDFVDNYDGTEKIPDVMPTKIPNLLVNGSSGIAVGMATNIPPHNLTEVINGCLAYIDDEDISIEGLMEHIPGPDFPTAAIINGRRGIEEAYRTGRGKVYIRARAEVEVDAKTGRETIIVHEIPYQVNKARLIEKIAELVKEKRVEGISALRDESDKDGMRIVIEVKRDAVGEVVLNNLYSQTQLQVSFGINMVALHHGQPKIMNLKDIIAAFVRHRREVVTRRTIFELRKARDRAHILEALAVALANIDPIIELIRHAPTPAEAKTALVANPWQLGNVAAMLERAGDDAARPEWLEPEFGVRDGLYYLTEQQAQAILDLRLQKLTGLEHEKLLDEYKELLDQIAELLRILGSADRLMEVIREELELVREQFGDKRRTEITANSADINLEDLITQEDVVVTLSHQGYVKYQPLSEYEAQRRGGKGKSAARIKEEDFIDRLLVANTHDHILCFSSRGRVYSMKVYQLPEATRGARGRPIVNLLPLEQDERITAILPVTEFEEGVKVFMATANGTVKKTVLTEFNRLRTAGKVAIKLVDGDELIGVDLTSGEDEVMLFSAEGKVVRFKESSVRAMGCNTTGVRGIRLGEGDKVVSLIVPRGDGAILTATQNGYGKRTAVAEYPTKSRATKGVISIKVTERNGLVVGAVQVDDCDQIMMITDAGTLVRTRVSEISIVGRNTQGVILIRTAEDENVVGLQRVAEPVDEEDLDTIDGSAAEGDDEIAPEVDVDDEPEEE
- Sequence (P0A0K8 whole entry): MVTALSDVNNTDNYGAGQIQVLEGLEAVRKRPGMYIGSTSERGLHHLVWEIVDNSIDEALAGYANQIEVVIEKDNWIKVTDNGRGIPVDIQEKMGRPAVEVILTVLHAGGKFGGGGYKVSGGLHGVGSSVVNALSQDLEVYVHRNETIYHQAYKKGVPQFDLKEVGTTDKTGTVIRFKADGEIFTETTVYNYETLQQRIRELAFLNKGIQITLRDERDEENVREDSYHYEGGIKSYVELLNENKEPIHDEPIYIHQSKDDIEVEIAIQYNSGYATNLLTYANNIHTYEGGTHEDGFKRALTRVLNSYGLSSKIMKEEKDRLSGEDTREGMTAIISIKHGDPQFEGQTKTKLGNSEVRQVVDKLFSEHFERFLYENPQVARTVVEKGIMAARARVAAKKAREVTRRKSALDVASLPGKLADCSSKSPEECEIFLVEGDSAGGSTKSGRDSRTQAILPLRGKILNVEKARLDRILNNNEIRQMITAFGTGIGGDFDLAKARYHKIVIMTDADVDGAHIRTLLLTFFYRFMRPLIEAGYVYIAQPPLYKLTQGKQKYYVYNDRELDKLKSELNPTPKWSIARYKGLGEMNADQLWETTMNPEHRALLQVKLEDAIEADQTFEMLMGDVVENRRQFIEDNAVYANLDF
- Method notes: S. aureus GyrB ATPase inhibition (ammonium molybdate/malachite green phosphate detection)
- Assay type: biochemical
- Run conditions: compound concentration of 1 μM (unless otherwise noted)
Assay metric: inhibition at 1 µM (%)
Report the value in % with no unit label.

Worked examples follow.
Cc1[nH]c(C(=O)N[C@@H]2CCN(c3nc(-c4cnc(N5CCN(CC6CCCN(C)C6)CC5)cn4)c(C(=O)O)s3)C[C@@H]2C)c(Cl)c1Cl (stereo partly shown) [Example 177]; 107
C=CCO[C@H]1CN(c2nc(-c3nccn3CCOC)c(C(=O)O)s2)CC[C@H]1NC(=O)c1[nH]c(C)c(Cl)c1Cl [Example 2]; 103
COCC(COC)Nc1cnc(-c2nc(N3CC[C@@H](NC(=O)c4[nH]c(C)c(Cl)c4Cl)[C@@H](C)C3)sc2C(=O)O)cn1 [Example 172]; 109
CCO[C@H]1CN(c2nc(-c3cnc(N4CCN(C)CC4)cn3)c(C(=O)O)s2)CC[C@H]1NC(=O)c1[nH]c(C)c(Cl)c1Cl [Example 88]; 107
Cc1[nH]c(C(=O)N[C@@H]2CCN(c3nc(-c4cnccn4)c(C(=O)O)s3)C[C@@H]2C)c(C#N)c1Cl [Example 29]; 98
COCCNc1cnc(-c2nc(N3CC[C@@H](NC(=O)c4[nH]c(C)c(Cl)c4Cl)[C@@H](C)C3)sc2C(=O)O)cn1 [Example 170]; 119
CCCO[C@H]1CN(c2nc(-c3cnccn3)c(C(=O)O)s2)CC[C@H]1NC(=O)c1cc(Cl)c(C)[nH]1 [Example 203]; 108
CO[C@H]1CN(c2nc(-c3cnc(N4CCN(CCO)CC4)cn3)c(C(=O)O)s2)CC[C@H]1NC(=O)c1[nH]c(C)c(Cl)c1Cl [Example 141]; 103

Report inhibition at 1 µM for CCN1CCN(c2cnc(-c3nc(N4CC[C@@H](NC(=O)c5[nH]c(C)c(Cl)c5Cl)[C@@H](C)C4)sc3C(=O)O)cn2)CC1 [Example 164] please. 117

CCO[C@H]1CN(c2nc(-c3cnc(NC(COC)COC)cn3)c(C(=O)O)s2)CC[C@H]1NC(=O)c1[nH]c(C)c(Cl)c1Cl [Example 92] ? 102

CCO[C@H]1CN(c2nc(-c3cnc(N4CCN(C(CC)CC)CC4)cn3)c(C(=O)O)s2)CC[C@H]1NC(=O)c1[nH]c(C)c(Cl)c1Cl [Example 99] ? 106

CCCO[C@H]1CN(c2nc(-c3cnccn3)c(C(=O)O)s2)CC[C@H]1NC(=O)c1[nH]c(C)c(Cl)c1C#N [Example 211] ? 107

###

- Measurement target: S. aureus GyrB ATPase (Staphylococcus aureus, UniProt P0A0K8)
- Method notes: S. aureus GyrB ATPase inhibition (ammonium molybdate/malachite green phosphate detection)
- Format: biochemical
- Run conditions: compound concentration of 1 μM (unless otherwise noted)
Assay metric: inhibition at 1 µM (%)
Report the value in % with no unit label.

CCO[C@H]1CN(c2nc(-c3ncnn3C)c(C(=O)O)s2)CC[C@H]1NC(=O)c1[nH]c(C)c(Cl)c1Cl; 100
CCO[C@H]1CN(c2nc(-c3cnccn3)c(C(=O)O)s2)CC[C@H]1NC(=O)c1[nH]c(C)c(Cl)c1Cl; 101
CCO[C@H]1CN(c2nc(-c3cnc(N4CCNCC4)cn3)c(C(=O)O)s2)CC[C@H]1NC(=O)c1[nH]c(C)c(Cl)c1Cl; 110
Cc1[nH]c(C(=O)N[C@@H]2CCN(c3nc(-c4cnc(N5CCN(CC6CCCCC6)CC5)cn4)c(C(=O)O)s3)C[C@@H]2C)c(Cl)c1Cl; 102
CO[C@H]1CN(c2nc(-c3cnc(NCC4CN5CCN4CC5)cn3)c(C(=O)O)s2)CC[C@H]1NC(=O)c1[nH]c(C)c(Cl)c1Cl (some centres unmarked); 118
CO[C@H]1CN(c2nc(-c3nccc(N4CCCCC4)n3)c(C(=O)O)s2)CC[C@H]1NC(=O)c1[nH]c(C)c(Cl)c1Cl; 106
Cc1[nH]c(C(=O)N[C@@H]2CCN(c3nc(-c4cnc(N5CCN(CCO)CC5)cn4)c(C(=O)O)s3)C[C@@H]2C)c(Cl)c1Cl; 117
CO[C@H]1CN(c2nc(-c3cnc(NCCN(C)C)cn3)c(C(=O)O)s2)CC[C@H]1NC(=O)c1[nH]c(C)c(Cl)c1Cl; 103

Report inhibition at 1 µM for COCCn1ccnc1-c1nc(N2CC[C@@H](NC(=O)c3[nH]c(C)c(Cl)c3Cl)[C@@H](C)C2)sc1C(=O)O please. 100

CO[C@H]1CN(c2nc(-c3cnc(OCCC4CCN(C)CC4)cn3)c(C(=O)O)s2)CC[C@H]1NC(=O)c1[nH]c(C)c(Cl)c1Cl ? 107

CCC(CC)N1CCN(c2cnc(-c3nc(N4CC[C@@H](NC(=O)c5[nH]c(C)c(Cl)c5Cl)[C@@H](OC)C4)sc3C(=O)O)cn2)CC1 ? 101

###

- Measurement target: S. aureus GyrB ATPase (Staphylococcus aureus)
- Method notes: S. aureus GyrB ATPase inhibition (ammonium molybdate/malachite green phosphate detection)
- Type: biochemical
- Run conditions: compound concentration of 1 μM (unless otherwise noted)
In this section, each of the compounds is paired with its reported inhibition at 1 µM.
Report the value in % with no unit label.

Worked examples follow.
Cc1[nH]c(C(=O)N[C@@H]2CCN(c3nc(-c4cnc(N5CCNCC5)cn4)c(C(=O)O)s3)C[C@@H]2C)c(Cl)c1Cl; 102
Cc1[nH]c(C(=O)N[C@@H]2CCN(c3nc(-c4cnc(NCCN5CCN(C)CC5)cn4)c(C(=O)O)s3)C[C@@H]2C)c(Cl)c1Cl; 106
CCO[C@H]1CN(c2nc(-c3ncnn3C)c(C(=O)O)s2)CC[C@H]1NC(=O)c1cc(Cl)c(C)[nH]1; 103

Then there is this compound:
Report inhibition at 1 µM for CCO[C@H]1CN(c2nc(-c3ncccc3F)c(C(=O)O)s2)CC[C@H]1NC(=O)c1cc(Cl)c(C)[nH]1 please. 106

###

In this section, each of the compounds is paired with its reported inhibition at 1 µM.
- Measurement target: S. aureus GyrB ATPase (Staphylococcus aureus)
- Method notes: S. aureus GyrB ATPase inhibition (ammonium molybdate/malachite green phosphate detection)
- Format: biochemical
- Run conditions: compound concentration of 1 μM (unless otherwise noted)
Report the value in % with no unit label.

Report inhibition at 1 µM for CCCO[C@H]1CN(c2nc(-c3nccn3CCOC)c(C(=O)O)s2)CC[C@H]1NC(=O)c1[nH]c(C)c(Cl)c1Cl please. 109

CO[C@H]1CN(c2nc(-c3cnc(N4CCNCC4)cn3)c(C(=O)O)s2)CC[C@H]1NC(=O)c1[nH]c(C)c(Cl)c1Cl ? 108

###

- Measurement target: S. aureus GyrB ATPase (Staphylococcus aureus, UniProt P0A0K8)
- Method notes: S. aureus GyrB ATPase inhibition (ammonium molybdate/malachite green phosphate detection)
- Format: biochemical
- Run conditions: compound concentration of 1 μM (unless otherwise noted)
Assay metric: inhibition at 1 µM (%)
Report the value in % with no unit label.

CCO[C@H]1CN(c2nc(-c3cnc(N4CCN(CC(C)C)CC4)cn3)c(C(=O)O)s2)CC[C@H]1NC(=O)c1[nH]c(C)c(Cl)c1Cl [Example 96]; 104
CCO[C@H]1CN(c2nc(-c3cnc(N4CCN(CC)CC4)cn3)c(C(=O)O)s2)CC[C@H]1NC(=O)c1[nH]c(C)c(Cl)c1Cl [Example 100]; 102
CO[C@H]1CN(c2nc(-c3cnc(OCCN4CCCC4)cn3)c(C(=O)O)s2)CC[C@H]1NC(=O)c1[nH]c(C)c(Cl)c1Cl [Example 62]; 98
Cc1[nH]c(C(=O)N[C@@H]2CCN(c3nc(-c4ncccc4F)c(C(=O)O)s3)C[C@@H]2C)cc1Cl [Example 20]; 118

Report inhibition at 1 µM for CCO[C@H]1CN(c2nc(-c3cnc(NCCOC)cn3)c(C(=O)O)s2)CC[C@H]1NC(=O)c1[nH]c(C)c(Cl)c1Cl [Example 90] please. 103

CCN1CCN(c2cnc(-c3nc(N4CC[C@@H](NC(=O)c5[nH]c(C)c(Cl)c5Cl)[C@@H](OC)C4)sc3C(=O)O)cn2)CC1 [Example 138] ? 103

CO[C@H]1CN(c2nc(-c3cnc(NCCN4CCCC4=O)cn3)c(C(=O)O)s2)CC[C@H]1NC(=O)c1[nH]c(C)c(Cl)c1Cl [Example 127] ? 110

CCO[C@H]1CN(c2nc(-c3ncnn3CCOC)c(C(=O)O)s2)CC[C@H]1NC(=O)c1[nH]c(C)c(Cl)c1C#N [Example 13] ? 99

CCO[C@H]1CN(c2nc(-c3ncccc3F)c(C(=O)O)s2)CC[C@H]1NC(=O)c1[nH]c(C)c(Cl)c1C#N [Example 14] ? 91

CO[C@H]1CN(c2nc(-c3cnc(N4CCCCC4)cn3)c(C(=O)O)s2)CC[C@H]1NC(=O)c1[nH]c(C)c(Cl)c1Cl [Example 124] ? 112

CCO[C@H]1CN(c2nc(-c3cnc(N4CCN[C@H](C)C4)cn3)c(C(=O)O)s2)CC[C@H]1NC(=O)c1[nH]c(C)c(Cl)c1Cl [Example 102] ? 112

Cc1[nH]c(C(=O)N[C@@H]2CCN(c3nc(-c4ncccc4F)c(C(=O)O)s3)C[C@@H]2C)c(Cl)c1Cl [Example 24] ? 120

COCCNc1cnc(-c2nc(N3CC[C@@H](NC(=O)c4[nH]c(C)c(Cl)c4Cl)[C@@H](OC)C3)sc2C(=O)O)cn1 [Example 128] ? 110

CCO[C@H]1CN(c2nc(-c3cnc(N4CCN(CCO)CC4)cn3)c(C(=O)O)s2)CC[C@H]1NC(=O)c1[nH]c(C)c(Cl)c1Cl [Example 103] ? 102

C=CCO[C@H]1CN(c2nc(-c3cnccn3)c(C(=O)O)s2)CC[C@H]1NC(=O)c1[nH]c(C)c(Cl)c1Cl [Example 4] ? 97

CCCO[C@H]1CN(c2nc(-c3nccn3CCOC)c(C(=O)O)s2)CC[C@H]1NC(=O)c1cc(Cl)c(C)[nH]1 [Example 201] ? 105

Cc1[nH]c(C(=O)N[C@@H]2CCN(c3nc(-c4ncccc4F)c(C(=O)O)s3)C[C@@H]2C)c(C#N)c1Cl [Example 28] ? 98

CO[C@H]1CN(c2nc(-c3nccc(N4CCN(CC(C)C)CC4)n3)c(C(=O)O)s2)CC[C@H]1NC(=O)c1[nH]c(C)c(Cl)c1Cl [Example 192] ? 108
